- study_target: human BRD4 bromodomain II (Homo sapiens)
- Construct: human BRD4 bromodomain II [based on Genbank NM_058243, residues 349-460]; host or cells: E. coli
- procedure_summary: Bromodomain binding assay (AlphaScreen), BRD4 BDII
- measurement_conditions: BRD4 BDII AlphaScreen assay; read-out: BRD4 BD2 IC50
Quick reference for IC50 among some molecules

Input CC(=O)Nc1cnc(-c2cc(F)cc(-c3cccc(N4CCN(C(C)(C)C)CC4)c3)c2O)cn1 . Output IC50: > 100 nM

Record Cn1ccn(-c2ccc(-c3cc(F)cc(-c4cccc(C5=CCN(C(C)(C)C)CC5)c4)c3O)cc2Cl)c1=O , field IC50: 1 to 10 nM

Lab note: measured IC50 of Cn1ccn(-c2ccc(-c3cc(C(F)(F)F)cc(-c4cccc(N5CCN(C(C)(C)C)CC5)c4)c3O)cc2Cl)c1=O was 1 to 10 nM

molecule Cn1ccn(-c2ccc(-c3cc(F)cc(-c4cccc(N5CC6CNCC6C5)c4)c3O)cc2Cl)c1=O (stereo not shown) , IC50 observed: 1 to 10 nM

----------
Catalogue of IC50 readings, one per entry.
- study_target: human BRD4 bromodomain II (Homo sapiens)
- Construct: human BRD4 bromodomain II [based on Genbank NM_058243, residues 349-460]; host or cells: E. coli
- procedure_summary: Bromodomain binding assay (AlphaScreen), BRD4 BDII
- measurement_conditions: AlphaScreen assay, Table C2; read-out: BRD4 BDII IC50

A selection of reference data follows.
| molecule | property_measured | value_measured |
| --- | --- | --- |
| Cn1ccn(-c2ccc(-c3cc(F)cc(-c4cncc(N5CCC6(CCCN6)C5)c4)c3O)cc2Cl)c1=O (stereo not drawn) | IC50 | 0.01 to 1 nM |
| CN1CCN(c2ccc(-c3cccc(-c4cncc(N5CCCC(N)C5)c4)c3O)cc2Cl)C1=O (stereo not drawn) | IC50 | 1 to 10 nM |
| CN1CCN(c2cc(-c3cc(F)cc(-c4ccc(-n5ccn(C)c5=O)c(Cl)c4)c3O)cc3[nH]ncc23)CC1 | IC50 | 0.01 to 1 nM |
| COCCOc1ncc(-c2cc(F)cc(-c3ccc(N4CCN(C)C4=O)c(Cl)c3)c2O)cc1N1CCNCC1 | IC50 | 1 to 10 nM |
| Cn1ccn(-c2ccc(-c3cc(F)cc(-c4ccnc(N5CC[C@@](C)(N)C5)c4)c3O)cc2Cl)c1=O | IC50 | 0.01 to 1 nM |

// recorded IC50 for COCCCn1cc(-c2cc(F)cc(-c3ccc(-n4ccn(C)c4=O)c(Cl)c3)c2O)cc(N2CCN[C@H](C)C2)c1=O : 0.01 to 1 nM

molecule CN1CCN(c2ccc(-c3cccc(-c4ccnc(N5CCNCC5)c4)c3O)cc2F)C1=O , IC50 observed: 1 to 10 nM

----------
- study_target: human BRD4 bromodomain II (Homo sapiens)
- Construct: human BRD4 bromodomain II [based on Genbank NM_058243, residues 349-460]; host or cells: E. coli
- procedure_summary: Bromodomain binding assay (AlphaScreen), BRD4 BDII
- measurement_conditions: AlphaScreen assay, Table C2; read-out: BRD4 BDII IC50
property_measured: IC50

Answered examples (5):
| compound | IC50 |
| --- | --- |
| Cn1ccn(-c2ccc(-c3cc(F)cc(-c4ccnc(N5CCN(C[C@H](O)CO)CC5)c4)c3O)cc2Cl)c1=O [Example 621] | 0.01 to 1 nM |
| CC(=O)NCc1ncc(-c2cc(F)cc(-c3ccc(N4CCN(C)C4=O)c(Cl)c3)c2O)cc1N1CCNCC1 [Example 370] | 1 to 10 nM |
| CN1C2CCC1CN(c1cncc(-c3cc(F)cc(-c4ccc(-n5ccn(C)c5=O)c(Cl)c4)c3O)c1)C2 [Example 514] | 1 to 10 nM |
| Cn1ccn(-c2ccc(-c3cc(F)cc(-c4ccnc(N5CCN(C[C@@H](O)CO)CC5)c4)c3O)cc2Cl)c1=O [Example 610] | 0.01 to 1 nM |
| Cn1ccn(-c2ccc(-c3cc(Cl)cc(-c4ccnc(N5CC[C@H](N)C5)c4)c3O)cc2Cl)c1=O [Example 539] | 1 to 10 nM |

The value of IC50 measured for the compound Cn1ccn(-c2ccc(-c3cc(F)cc(-c4cncc(N5CC[C@@](C)(O)C5)c4)c3O)cc2Cl)c1=O [Example 728] turned out to be 1 to 10 nM

For record C[C@@H]1CN(c2cc(-c3cc(F)cc(-c4ccc(-n5ccn(C)c5=O)c(Cl)c4)c3O)cc(=O)n2C)CCN1 [Example 689] the listed IC50 is 0.01 to 1 nM
